- MEASUREMENT TARGET: 5-hydroxytryptamine receptor 2B (Homo sapiens)
- Sequence (P41595 whole entry): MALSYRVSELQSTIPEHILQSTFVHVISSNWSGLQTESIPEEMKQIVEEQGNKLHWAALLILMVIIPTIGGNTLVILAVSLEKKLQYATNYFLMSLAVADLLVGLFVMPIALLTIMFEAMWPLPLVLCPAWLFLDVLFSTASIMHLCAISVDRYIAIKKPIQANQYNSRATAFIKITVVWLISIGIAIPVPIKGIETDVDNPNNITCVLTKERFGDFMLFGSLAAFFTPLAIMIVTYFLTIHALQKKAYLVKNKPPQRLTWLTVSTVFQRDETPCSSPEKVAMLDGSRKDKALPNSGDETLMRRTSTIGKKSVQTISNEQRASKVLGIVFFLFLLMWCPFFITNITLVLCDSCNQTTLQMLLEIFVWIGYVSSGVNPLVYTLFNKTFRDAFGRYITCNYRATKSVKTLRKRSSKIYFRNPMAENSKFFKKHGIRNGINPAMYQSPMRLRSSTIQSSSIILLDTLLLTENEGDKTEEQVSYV
OBSERVABLE: pKi
pKi field: float, defined as -log10 of concentration (mol/L).

Given the molecule `CCOP(=O)(OCC)c1ccc2[nH]cc(CCN(C)C)c2c1` and test system 5-hydroxytryptamine receptor 2B (Homo sapiens), the measured pKi is 6.85

---

- MEASUREMENT TARGET: 5-hydroxytryptamine receptor 2A (Homo sapiens)
- Sequence (P28223 whole entry): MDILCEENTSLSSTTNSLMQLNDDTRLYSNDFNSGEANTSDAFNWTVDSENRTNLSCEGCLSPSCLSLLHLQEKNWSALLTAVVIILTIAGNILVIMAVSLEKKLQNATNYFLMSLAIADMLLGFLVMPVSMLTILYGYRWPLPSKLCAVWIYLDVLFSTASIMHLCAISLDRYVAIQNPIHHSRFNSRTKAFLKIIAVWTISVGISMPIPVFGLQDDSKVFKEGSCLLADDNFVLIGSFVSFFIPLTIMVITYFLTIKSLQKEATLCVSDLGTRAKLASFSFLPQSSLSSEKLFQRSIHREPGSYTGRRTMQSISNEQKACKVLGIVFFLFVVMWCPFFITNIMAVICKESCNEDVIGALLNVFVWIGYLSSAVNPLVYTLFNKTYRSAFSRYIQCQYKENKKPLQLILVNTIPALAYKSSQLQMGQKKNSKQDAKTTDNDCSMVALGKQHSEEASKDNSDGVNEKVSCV
- TEST DETAILS: Inhibition of [125I](+/-)DOI binding to 5-HT2AR (unknown origin ) expressed in HEK293 cells assessed as inhibition constant by scintillation counter analysis
- Type: cell-based
OBSERVABLE: Ki (nM)
// return numeric value only (unit: nM, not printed)

The reported value for `CCOP(=O)(OCC)c1ccc2[nH]cc(CCN(C)C)c2c1` in terms of Ki is 620
